Biological target: Glutamate NMDA receptor
Assay: Ability to displace [3H]-TCP from rat brain homogenate
Format: tissue-based
pKi: −log10 of the molar value.
QUANTITY MEASURED: pKi

// query GET /values?readout=pKi&item= c1ccc2sc(C3(N4CCCCC4)CCCCC3)cc2c1
// result < 5.00

###

Biological target: Sodium-dependent dopamine transporter (Rattus norvegicus, UniProt P23977)
Sequence (P23977 whole entry): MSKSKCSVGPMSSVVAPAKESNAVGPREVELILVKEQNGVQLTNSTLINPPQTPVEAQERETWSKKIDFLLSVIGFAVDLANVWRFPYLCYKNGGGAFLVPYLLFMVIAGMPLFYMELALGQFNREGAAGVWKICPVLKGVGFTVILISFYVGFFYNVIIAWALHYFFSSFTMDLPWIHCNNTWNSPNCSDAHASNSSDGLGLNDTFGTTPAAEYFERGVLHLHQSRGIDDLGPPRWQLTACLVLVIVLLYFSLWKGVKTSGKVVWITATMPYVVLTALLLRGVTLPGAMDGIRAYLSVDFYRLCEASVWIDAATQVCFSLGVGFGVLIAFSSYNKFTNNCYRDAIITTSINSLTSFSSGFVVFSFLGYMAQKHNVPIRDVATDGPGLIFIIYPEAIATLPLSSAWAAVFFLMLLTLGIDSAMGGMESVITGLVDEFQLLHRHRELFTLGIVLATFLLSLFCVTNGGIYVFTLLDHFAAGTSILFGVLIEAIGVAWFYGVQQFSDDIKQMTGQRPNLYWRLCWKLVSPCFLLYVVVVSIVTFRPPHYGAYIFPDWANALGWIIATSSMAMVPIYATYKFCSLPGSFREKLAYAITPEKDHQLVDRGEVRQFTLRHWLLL
Assay: Inhibition of [3H]cocaine binding to rat forebrain […]
The molecules listed here are annotated with their IC50.
# output: bare number, implied unit nM

| SMILES STRING | UNIT OF MEASUREMENT | READING |
| --- | --- | --- |
| c1ccc2sc(C3(N4CCCC4)CCCC3)cc2c1 | nM | 26 |
| c1ccc2sc(C3(N4CCCC4)CCCCCC3)cc2c1 | nM | 52 |
| c1ccc2sc(C3(N4CCCC4)CCCCC3)cc2c1 | nM | 12 |
| c1ccc2sc(C3(N4CCCCCC4)CCCCCC3)cc2c1 | nM | 386 |
| NC1(c2cc3ccccc3s2)CCCCCC1 | nM | 1340 |
| c1ccc2sc(C3(N4CCCCC4)CCCCC3)cc2c1 | nM | 41 |
| c1ccc2sc(C3(N4CCCCC4)CCCC3)cc2c1 | nM | 76 |
| c1ccc2sc(C3(N4CCCCC4)CCCCCC3)cc2c1 | nM | 111 |
| NC1(c2cc3ccccc3s2)CCCCC1 | nM | 684 |
| NC1(c2cc3ccccc3s2)CCCC1 | nM | 933 |

// query GET /values?readout=IC50&item= c1ccc2sc(C3(N4CCCCCC4)CCCC3)cc2c1
// result 62

// query Then this molecule: c1ccc2sc(C3(N4CCCCCC4)CCCCC3)cc2c1
// result 36
